Entries and their cell viability
- Test system: MARIMO;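 also: after 48 h exposure read by CellTiter-Glo luminescence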
- ASSAY_TEXT: cell viability relative to vehicle control; higher = less cytotoxic
- EXPERIMENTAL_PARAMETERS: 10 µM; SRSF2 genotype: SRSF2 P95H/wt
API: value field is a number in %; no unit string.

Solved cases below.
CC(=O)O[C@]1(C)CC[C@@]23C[C@H]1C(C)(C)[C@@H]2CC[C@H]3C [Cedryl acetate]: 103
COc1cccc(-c2cc(F)ccc2C2Cc3nc(N)nc(C)c3C(=O)N2)n1 (centres undefined): 29.6
O=C1NC(=O)[C@@H](c2cn3c4c(cccc24)CCC3)[C@@H]1c1c[nH]c2ccccc12 [ARQ 197 (Tivantinib)]: 6.87
O=C(Nc1cccc(Nc2ncc(Br)c(NCCc3cnc[nH]3)n2)c1)N1CCCC1: 49.8
CC(C)=CCCC(C)(O)C1CCC2(C)C1C(O)CC1C3(C)CCC(O)C(C)(C)C3CCC12C [(20S)-Protopanaxadiol]: 96.7

Returns the measured cell viability for the input compound. Input: C=C(Cc1ccccc1Cl)C(=O)OCC
107

Would you mind doing CC(=CCNc1ncnc2c1ncn2C1OC(CO)C(O)C1O)CO (stereo not drawn) [trans-Zeatin-riboside] as well?
99.7

Would you mind doing OCCOc1ccc(/C(=C(/CCCl)c2ccccc2)c2ccccc2)cc1 as well?
105

Would you mind doing CC(=O)CCc1ccccc1 as well?
101

---

- Test system: MARIMO;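 also: after 48 h exposure read by CellTiter-Glo luminescence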
- ASSAY_TEXT: cell viability relative to vehicle control; higher = less cytotoxic
- EXPERIMENTAL_PARAMETERS: 10 µM; SRSF2 genotype: SRSF2 P95H/wt
OBSERVED_PROPERTY: cell viability (%)
API: value field is a number in %; no unit string.

Solved cases below.
CC1(C)S[C@@H]2[C@H](NC(=O)[C@H](N)c3ccccc3)C(=O)N2[C@H]1C(=O)OCOC(=O)[C@@H]1N2C(=O)C[C@H]2S(=O)(=O)C1(C)C: 93.1
CC(C)n1cnc2c(NCCc3ccc(O)cc3)nc(-c3csc4ccccc34)nc21: 84.6
NC(=O)[C@@H](CCC(F)(F)F)N(Cc1ccc(-c2ncon2)cc1F)S(=O)(=O)c1ccc(Cl)cc1: 84.8
CCCCCCCCCCCCCCCCn1cc[n+](Cc2ccccc2)c1C: 0.21
CC(NC(=O)C(O)c1cc(F)cc(F)c1)C(=O)NC1C(=O)N(C)c2ccccc2-c2ccccc21 (stereo not drawn): 96.1

Returns the measured cell viability for the input compound. Input: C[C@H]1c2cccc(O)c2C(O)=C2C(=O)[C@]3(O)C(O)=C(C(N)=O)C(=O)[C@@H](N(C)C)[C@@H]3[C@@H](O)[C@@H]21
91.8

Would you mind doing CC1(C)S[C@@H]2[C@H](NC(=O)[C@H](N)c3ccccc3)C(=O)N2[C@H]1C(=O)O [Ampicillin sodium] as well?
109

Would you mind doing CCCC(CCC)C(=O)O [Divalproex sodium] as well?
101

Would you mind doing OC(c1cc(-c2ccc(Cl)cc2)nc2ccccc12)C1CCCCN1 (stereo not drawn) as well?
0.1

Would you mind doing Cc1cc(C)c(CNC(=O)c2cc(-c3ccc(CN4CCOCC4)cc3)cc3c2cnn3C2CCCC2)c(=O)[nH]1 as well?
113

Would you mind doing O=C1NC(=O)/C(=C/c2ccc3c(c2)OC(F)(F)O3)S1 as well?
101

Data provenance: the supplement of paper PMC10981050
